meta.source: PubChem BioAssay (NCI)

# Test system: SK-OV-3 ovarian
# TEST_DETAILS: NCI tumour cell line growth inhibition, 48 h
PROPERTY_MEASURED: TGI

INSERT INTO results (compound, observed_result) VALUES
  ('COc1cc2nc(N3CCCC3)nc(NCCc3ccccc3)c2cc1OC', '3.56 µM'),
  ('Cc1ccc(/C=C/C(=O)C(C)(C)CN2CCCCC2)cc1', '26.3 µM'),
  ('CN(C)c1ccc(C(Cc2ccccc2)C2NC(=S)NC2=O)cc1 (stereo unspecified)', '> 100 µM'),
  ('Cc1cc(S(=O)(=O)Nc2nc3ccccc3nc2-c2cccc([N+](=O)[O-])c2)c(S)cc1Cl', '34 µM'),
  ('Cc1c(/C=N/N=C/c2[nH]c(C(=O)OC(C)(C)C)c(C)c2C)[nH]c(C(=O)OC(C)(C)C)c1C', '> 100 µM'),
  ('Cc1n[nH]c(=O)n1N1C(=O)CCCC1=O', '> 100 µM'),
  ('COc1cc2c(cc1OCCCn1c(-c3ccccn3)nc3ccccc31)N=C[C@@H]1CCCN1C2=O', '19.6 µM'),
  ('CCOC(=O)c1c(C)nc2c1c(CN(C)C)c(O)c1[nH]c(C)c(C)nc12', '92.3 µM'),
  ('COc1cccc(OC)c1C(=O)OCc1ccccc1', '> 100 µM'),
  ('O=C1OC(=O)C(=C\c2ccc3c(c2)OCO3)/C1=C/c1ccc2c(c1)OCO2', '> 100 µM'),
  ('CC1=C2[C@@H](CC1)[C@]1(C)O[C@@](c3ccccc3)(C[C@H]1OC(=O)CO)[C@H]2OC(=O)/C=C/c1ccccc1', '44.8 µM'),
  ('CCOc1ccccc1C(=O)N1CCN(c2cc(Cl)cc(Cl)c2)CC1', '9.14 µM'),
  ('COc1cc2c(cc1C1COc3cc4occc4cc3C1=O)OCO2 (stereo unspecified)', '> 100 µM'),
  ('COc1nc(=O)n(COC(CO)CN2C(=O)c3ccccc3C2=O)cc1Cc1cccc(OCc2ccccc2)c1 (stereo unspecified)', '90.6 µM'),
  ('Fc1ccc(/C=N/n2c(-c3ccc(F)c(Cl)c3)nn(CNc3ccccc3C(F)(F)F)c2=S)cc1', '> 100 µM'),
  ('O=c1[nH]cc(COCCCO)c(=O)[nH]1', '> 100 µM'),
  ('O=C1OC(Cc2ccccc2)(N2CCCC2=O)C1c1ccccc1 (stereo unspecified)', '> 100 µM'),
  ('CC(C)NCCCn1c(Sc2cc3c(cc2I)OCO3)nc2c(N)ncnc21', '> 100 µM'),
  ('COc1cc(N2C(=O)[C@H](O)C2c2ccc(SC)cc2)cc(OC)c1OC (stereo partly specified)', '> 100 µM'),
  ('COC(=O)[C@@H]1CC(C(C[N+](=O)[O-])c2ccc(O[Si](C)(C)C(C)(C)C)cc2)C(=O)N1C(=O)OC(C)(C)C (stereo partly specified)', '> 100 µM'),
  ('O=C(NNCC(O)COc1ccccc1)c1ccccc1 (stereo unspecified)', '> 100 µM');

* * *

# Test system: PC-3 prostate
# TEST_DETAILS: NCI tumour cell line growth inhibition, 48 h; in the data active means GI50 below about 0.43 µM; inactive means the rest
Labels: active, inactive

INSERT INTO results (molecule, class) VALUES
  ('O=S(=O)(c1ccc(Cl)cc1)C(Cl)(Cl)Cl', 'inactive'),
  ('O=C1c2cccnc2C(=O)c2c1c(C(=O)NCCCN1CCCCC1)c1ccccn21', 'inactive'),
  ('NC(=O)c1csc(C2OC(CO)C(O)C2O)n1 (stereo unspecified)', 'inactive'),
  ('OCc1ccc(N2CCCC2c2ccccc2)cc1Cl (stereo unspecified)', 'inactive'),
  ('COc1ccc2cc1Oc1ccc(cc1)C[C@H]1c3c(cc4c(c3Oc3cc5c(cc3OC)CCN(C)[C@@H]5C2)OCO4)CCN1C', 'inactive'),
  ('Nc1nc(OCc2ccccc2)c2[nH]cnc2n1', 'inactive'),
  ('COc1cc2c(cc1OCCCn1c(-c3ccccn3)nc3ccccc31)N=C[C@@H]1CCCN1C2=O', 'inactive'),
  ('COc1ccc(-c2cc(-c3ccc(C)cc3)nc3nc(=S)[nH]c(N)c23)cc1', 'inactive'),
  ('O=C1NC(=O)C(N2C(=O)c3ccccc3C2=O)CC1O (stereo unspecified)', 'inactive'),
  ('N#CC1(C(N)=O)C(c2ccc(Cl)cc2)CC(=O)CC1c1ccc(Cl)cc1 (stereo unspecified)', 'inactive'),
  ('CCCN(CCS(C)(=O)=O)Cc1ccc(-c2ccc3ncnc(Nc4ccc(OCc5cccc(F)c5)c(Cl)c4)c3c2)o1', 'inactive'),
  ('CN(C)CCCn1c(=O)c2ccccc2c2ccccc21', 'inactive'),
  ('O=C1OCC2=C1C(c1ccc(Cl)c(Cl)c1)c1cc3c(cc1N2CCO)OCCO3 (stereo unspecified)', 'active'),
  ('C1CCC([PH+](C2CCCCC2)C2CCCCC2[PH+](C2CCCCC2)C2CCCCC2)CC1.[Au].[CH-]1CCCCC1CC1CCCC[N-]1 (stereo unspecified)', 'active'),
  ('O=C1/C(=C/c2ccccc2[N+](=O)[O-])Cc2ccccc21', 'inactive'),
  ('CN1C(=O)N(C)C2C1NN=c1s/c(=C\c3ccc(C(F)(F)F)cc3)c(=O)n12 (stereo unspecified)', 'inactive'),
  ('COc1ccc(-c2[nH]c3ccccc3c2-c2ccc(OC)cc2)cc1', 'inactive'),
  ('C[C@@H]1CN(Cc2ccc(F)cc2)[C@@H](C)CN1C(=O)c1cc2c(C(=O)C(=O)N(C)C)cn(C)c2cc1Cl', 'inactive'),
  ('Cc1ccc(/C=N\NC(=O)c2[nH]c3ccc(F)cc3c2-c2ccccc2)cc1', 'active'),
  ('CNCCCNCCCCNCCCN1C(=O)c2ccc3c4c(ccc(c24)C1=O)C(=O)N(CCCNCc1ccccc1OC)C3=O', 'inactive'),
  ('COc1cc2c3c(n(C)c(=O)c2cc1OC)-c1cc2c(cc1/C3=C\CCCCN1C(=O)c3ccccc3C1=O)OCO2', 'inactive');

* * *

# System: HOP-92 NSCLC
# TEST_DETAILS: NCI tumour cell line growth inhibition, 48 h
PROPERTY_MEASURED: TGI

INSERT INTO measurements (compound, system_under_test, property_measured, observed_result) VALUES
  ('O=C(Nc1nc2ccc([N+](=O)[O-])cc2s1)C(=O)C(C(=O)c1ccccc1F)C1OC(=O)c2ccccc21 (centres undefined)', 'HOP-92 NSCLC', 'TGI', '> 100 µM'),
  ('N#CC1(C(N)=O)C(c2ccc(Cl)cc2)CC(=O)CC1c1ccc(Cl)cc1 (centres undefined)', 'HOP-92 NSCLC', 'TGI', '32.1 µM'),
  ('CC1(C)C=Cc2c(cc(O)c3c(=O)c4cc(Cl)ccc4[nH]c23)O1', 'HOP-92 NSCLC', 'TGI', '7.79 µM'),
  ('COC(=O)[C@@H]1[C@H](OC(C)=O)CCC2[C@@]3(C[C@@H](c4ccoc4)O[C@@H]3OC)[C@H](C)CC[C@]21C(=O)OC (some centres undefined)', 'HOP-92 NSCLC', 'TGI', '> 25 µM');

* * *

# System: LOX IMVI melanoma
# TEST_DETAILS: NCI tumour cell line growth inhibition, 48 h; in the data active = GI50 below about 0.43 µM; inactive = the rest
Labels: 1 (active), -1 (inactive)

INSERT INTO measurements (molecule, class) VALUES
  ('O=C1NC(=O)C(N2C(=O)c3ccccc3C2=O)CC1O (stereo not given)', -1),
  ('COc1ccc2cc1Oc1ccc(cc1)C[C@H]1c3c(cc4c(c3Oc3cc5c(cc3OC)CCN(C)[C@@H]5C2)OCO4)CCN1C', -1),
  ('COc1cc(N2C(=O)[C@H](O)C2c2ccc(SC)cc2)cc(OC)c1OC (stereo not given in full)', 1),
  ('CC1=C2[C@@H](CC1)[C@]1(C)O[C@@](c3ccccc3)(C[C@H]1OC(=O)CO)[C@H]2OC(=O)/C=C/c1ccccc1', -1),
  ('COc1ccc(-c2cc(-c3ccc(C)cc3)nc3nc(=S)[nH]c(N)c23)cc1', -1),
  ('CCCCCCCCCCCCCCCCCC[n+]1ccc2c(C)c3c(c(C)c2c1)c1cc(O)ccc1n3CC', -1),
  ('CC(C)C[C@H](NC(=O)CNC(=O)c1cc(Cl)ccc1Cl)B1OC(=O)CC(CC(=O)O)(C(=O)O)O1 (stereo not given in full)', 1),
  ('COc1ccc(-c2[nH]c3ccccc3c2-c2ccc(OC)cc2)cc1', -1),
  ('CN1C(=O)N(C)C2C1NN=c1s/c(=C\c3ccc(C(F)(F)F)cc3)c(=O)n12 (stereo not given)', -1),
  ('COc1cc2c(cc1OCCCn1c(-c3ccccn3)nc3ccccc31)N=C[C@@H]1CCCN1C2=O', -1),
  ('Fc1ccc(/C=N/n2c(-c3ccc(F)c(Cl)c3)nn(CNc3ccccc3C(F)(F)F)c2=S)cc1', -1),
  ('O=S(=O)(c1ccc(Cl)cc1)C(Cl)(Cl)Cl', -1),
  ('O=C(NN1C(=O)CSC12CCCCC2)c1[nH]c2ccc(Br)cc2c1-c1ccccc1', -1),
  ('O=C(/C=C\c1cccc([N+](=O)[O-])c1)/C=C/c1cccc([N+](=O)[O-])c1', -1),
  ('CCOc1ccccc1C(=O)N1CCN(c2cc(Cl)cc(Cl)c2)CC1', 1);
